system: HCV pseudotype (HIV core proteins, HCV E1 and E2 of strain H77); conditions: 25 μM
Ends that are not written are not given here.
Percent inhibition below 60% gives rule not met; Percent inhibition at or above it gives rule met.

• HPEATYSRCGSGPWITPR [compound 29, HPEATYSRCGSGPWITPR] = rule not met
• SIASWAIKWEYVVLLFLL [compound 46, SIASWAIKWEYVVLLFLL] = rule met
• WMNSTGFTKTCGGPPCNI [compound 100] = rule not met
• TGLIHLHQNIVDVQYLYG [compound 43, TGLIHLHQNIVDVQYLYG] = rule met
• WMNSTGFTKVCGAPPCVI [compound 24] = rule not met
• AGVDGETHTTGRVAGHTT [compound 54, AGVDGETHTTGRVAGHTT] = rule not met
• HPEATYTKCGSGPWLTPR [compound 105, HPEATYTKCGSGPWLTPR] = rule not met
• VGLLTPGAKQNIQLINTN [peptide 4, VGLLTPGAKQNIQLINTN] = rule met
• TKVCGAPPCVIGGVGNNT [compound 25] = rule not met
• LFLLLADARVCSCLWMML [compound 48] = rule not met

* * *

system: HCV pseudotype (HIV core proteins, HCV E1 and E2 of strain H77); conditions: HCV J4 1b E2 peptides at ~25 μM; Table 8; controls as in Table 7
MEASURED_QUANTITY: Luciferase units

- CC[C@H](C)[C@H](NC(=O)[C@@H](N)Cc1c[nH]cn1)C(=O)N[C@@H](CC(N)=O)C(=O)N[C@@H](CCCNC(=N)N)C(=O)N[C@H](C(=O)N[C@@H](C)C(=O)N[C@@H](CC(C)C)C(=O)N[C@@H](CC(N)=O)C(=O)N[C@@H](CS)C(=O)N[C@@H](CC(N)=O)C(=O)N[C@@H](CC(=O)O)C(=O)N[C@@H](CO)C(=O)N[C@@H](CC(C)C)C(=O)N[C@@H](CCC(N)=O)C(=O)N[C@H](C(=O)NCC(=O)N[C@@H](Cc1ccccc1)C(=O)N[C@@H](Cc1ccccc1)C(=O)O)[C@@H](C)O)[C@@H](C)O [compound 84, HINRTALNCNDSLQTGFF]: 392,023 luciferase units (lumens)
- CC[C@H](C)[C@H](NC(=O)[C@H](CCC(N)=O)NC(=O)[C@H](Cc1c[nH]c2ccccc12)NC(=O)[C@H](CCC(=O)O)NC(=O)[C@@H](NC(=O)[C@@H](NC(=O)[C@H](CO)NC(=O)[C@H](CC(C)C)NC(=O)[C@H](CC(C)C)NC(=O)[C@H](CC(C)C)NC(=O)[C@@H]1CCCN1C(=O)[C@H](CO)NC(=O)[C@H](CC(C)C)NC(=O)[C@H](CCC(=O)O)NC(=O)[C@H](CO)NC(=O)[C@@H](N)CCCNC(=N)N)[C@@H](C)O)[C@@H](C)O)C(=O)N[C@@H](CC(C)C)C(=O)N1CCC[C@H]1C(=O)O [compound 114, RSELSPLLLSTTEWQILP]: 270,190 luciferase units (lumens)

* * *

system: HCV pseudotype (HIV core proteins, HCV E1 and E2 of strain H77); settings: HCV H77 1a E2 peptides at ~25 μM; Table 7; virus alone 448,123
Ends that are not written are not given here.
MEASURED_QUANTITY: Luciferase units

* TGLIHLHQNIVDVQYLYG [compound 43, TGLIHLHQNIVDVQYLYG] | 32,283 luciferase units (lumens)
* WMNSTGFTKVCGAPPCVI [compound 24] | 391,886 luciferase units (lumens)
* YTIFKVRMYVGGVEHRLE [compound 34, YTIFKVRMYVGGVEHRLE] | 354,696 luciferase units (lumens)
* KWEYVVLLFLLLADARVC [compound 47, KWEYVVLLFLLLADARVC] | 195,320 luciferase units (lumens)
* LLSTTQWQVLPCSFTTLP [compound 40, LLSTTQWQVLPCSFTTLP] | 442,346 luciferase units (lumens)
* DTDVFVLNNTRPPLGNWF [compound 21, DTDVFVLNNTRPPLGNWF] | 242,223 luciferase units (lumens)
* CDLEDRDRSELSPLLLST [compound 38, CDLEDRDRSELSPLLLST] | 345,110 luciferase units (lumens)
* PTDCFRKHPEATYSRCGS [compound 28] | 394,780 luciferase units (lumens)
* YLYGVGSSIASWAIKWEY [compound 45, YLYGVGSSIASWAIKWEY] | 24,703 luciferase units (lumens)
* SIASWAIKWEYVVLLFLL [compound 46, SIASWAIKWEYVVLLFLL] | 103,040 luciferase units (lumens)
* MYVGGVEHRLEAACNWTR [compound 35, MYVGGVEHRLEAACNWTR] | 153,553 luciferase units (lumens)
* INTNGSWHINSTALNCNE [peptide 6, INTNGSWHINSTALNCNE] | 503,446 luciferase units (lumens)
* PVYCFTPSPVVVGTTDRS [compound 18, PVYCFTPSPVVVGTTDRS] | 435,026 luciferase units (lumens)
* AKQNIQLINTNGSWHINS [peptide 5, AKQNIQLINTNGSWHINS] | 48,000 luciferase units (lumens)
* DYPYRLWHYPCTINYTIF [compound 32, DYPYRLWHYPCTINYTIF] | 85,086 luciferase units (lumens)
* NWTRGERCDLEDRDRSEL [compound 37, NWTRGERCDLEDRDRSEL] | 585,553 luciferase units (lumens)
* HPEATYSRCGSGPWITPR [compound 29, HPEATYSRCGSGPWITPR] | 297,353 luciferase units (lumens)
* TDFAQGWGPISYANGSGL [compound 12, TDFAQGWGPISYANGSGL] | 417,706 luciferase units (lumens)
* TKVCGAPPCVIGGVGNNT [compound 25] | 480,280 luciferase units (lumens)
* NNTRPPLGNWFGCTWMNS [compound 22, NNTRPPLGNWFGCTWMNS] | 245,900 luciferase units (lumens)
* LFLLLADARVCSCLWMML [compound 48] | 290,786 luciferase units (lumens)
